Please go through the items and note down their viability, T/C.
- Tested on: 695427-040-R-J1-PDC complex spheroid viability;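 note: spheroids exposed to compounds for seven days; 100% = DMSO vehicle control viability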
- test.description: Anticancer human tumor 695427-040-R-J1-PDC patient-derived colon adenocarcinoma cell line growth inhibition [POLQ]
- test.parameters: second compound 1 µM; first compound 3.16 µM; hits give low values

# map each molecule to its viability, T/C
1. CNCc1ccc(-c2[nH]c3cc(F)cc4c3c2CCNC4=O)cc1 + COC1C(OC(N)=O)C(O)C(Oc2ccc3c(O)c(NC(=O)c4ccc(O)c(CC=C(C)C)c4)c(=O)oc3c2C)OC1(C)C
2. CNCc1ccc(-c2[nH]c3cc(F)cc4c3c2CCNC4=O)cc1 + Cc1cccc(N(C)C(=O)C2C(O)CCN2c2nc(C)cc(C(F)(F)F)c2C#N)c1
3. CCCS(=O)(=O)Nc1ccc(F)c(C(=O)c2c[nH]c3ncc(-c4ccc(Cl)cc4)cc23)c1F + COC1C(OC(N)=O)C(O)C(Oc2ccc3c(O)c(NC(=O)c4ccc(O)c(CC=C(C)C)c4)c(=O)oc3c2C)OC1(C)C
4. Nc1ccn(C2OC(CO)C(O)C2(F)F)c(=O)n1 (stereo not given) + COC1C(OC(N)=O)C(O)C(Oc2ccc3c(O)c(NC(=O)c4ccc(O)c(CC=C(C)C)c4)c(=O)oc3c2C)OC1(C)C
5. COc1ccc([C@@H](O)c2cc(-c3ncnc4cc(N5CCOCC5)ccc34)c(F)cc2Cl)nn1 + Cc1cccc(N(C)C(=O)C2C(O)CCN2c2nc(C)cc(C(F)(F)F)c2C#N)c1

# output
["112%", "110%", "107%", "62.5%", "84.1%"]

# map each molecule to its viability, T/C
1. C#Cc1c(F)ccc2cc(O)cc(-c3ncc4c(N5CC6CCC(C5)N6)nc(OCC56CCCN5CC(F)C6)nc4c3F)c12 (stereo not given) + COC1C(OC(N)=O)C(O)C(Oc2ccc3c(O)c(NC(=O)c4ccc(O)c(CC=C(C)C)c4)c(=O)oc3c2C)OC1(C)C
2. CC1COCCN1c1cc(C2(O)CC3CCC(C2)O3)c2cnn(-c3ccn[nH]3)c2n1 (stereo not given) + COC1C(OC(N)=O)C(O)C(Oc2ccc3c(O)c(NC(=O)c4ccc(O)c(CC=C(C)C)c4)c(=O)oc3c2C)OC1(C)C
3. O=C(Nc1ccc(O)c(NS(=O)(=O)c2ccc(F)cc2)c1)c1ccc(-c2ccccc2)cc1 + Nc1ccc(C#CCN(C(=O)Cc2ncc(C(F)(F)F)cc2C(F)(F)F)c2ccc(F)cc2)nn1
4. CC1COCCN1c1cc(-c2ccnn2C)c2ccnc(-c3ccn[nH]3)c2n1 (stereo not given) + Cc1cccc(N(C)C(=O)C2C(O)CCN2c2nc(C)cc(C(F)(F)F)c2C#N)c1
5. COc1ccc([C@@H](O)c2cc(-c3ncnc4cc(N5CCOCC5)ccc34)c(F)cc2Cl)nn1 + COC1C(OC(N)=O)C(O)C(Oc2ccc3c(O)c(NC(=O)c4ccc(O)c(CC=C(C)C)c4)c(=O)oc3c2C)OC1(C)C

# output
1: 97.1%; 2: 51%; 3: 119%; 4: 52.8%; 5: 82%
